test: Caco-2 permeation experiment; assay type: in vitro ADME; details: human, Caco-2, 120 min, pH 7.4, read-out: Average apparent permeability B to A
Where a name gives a salt, the structure may show the parent alone.
Recorded metric: Papp B→A at 120 min, 2 μM (×10⁻⁶ cm/s)
Give bare numbers, in ×10⁻⁶ cm/s.

For the compound CC1(C)Cc2cc(OC/C(=C/F)CN)ccc2C(=O)N1 [HC38-E, hydrochloride] , report Papp B→A at 120 min, 2 μM.
3.26

* * *

Please respond with reported IC50 for every item in the list.
target: VAP-1 (Homo sapiens)
Sequence (Q16853 whole entry, species assumed): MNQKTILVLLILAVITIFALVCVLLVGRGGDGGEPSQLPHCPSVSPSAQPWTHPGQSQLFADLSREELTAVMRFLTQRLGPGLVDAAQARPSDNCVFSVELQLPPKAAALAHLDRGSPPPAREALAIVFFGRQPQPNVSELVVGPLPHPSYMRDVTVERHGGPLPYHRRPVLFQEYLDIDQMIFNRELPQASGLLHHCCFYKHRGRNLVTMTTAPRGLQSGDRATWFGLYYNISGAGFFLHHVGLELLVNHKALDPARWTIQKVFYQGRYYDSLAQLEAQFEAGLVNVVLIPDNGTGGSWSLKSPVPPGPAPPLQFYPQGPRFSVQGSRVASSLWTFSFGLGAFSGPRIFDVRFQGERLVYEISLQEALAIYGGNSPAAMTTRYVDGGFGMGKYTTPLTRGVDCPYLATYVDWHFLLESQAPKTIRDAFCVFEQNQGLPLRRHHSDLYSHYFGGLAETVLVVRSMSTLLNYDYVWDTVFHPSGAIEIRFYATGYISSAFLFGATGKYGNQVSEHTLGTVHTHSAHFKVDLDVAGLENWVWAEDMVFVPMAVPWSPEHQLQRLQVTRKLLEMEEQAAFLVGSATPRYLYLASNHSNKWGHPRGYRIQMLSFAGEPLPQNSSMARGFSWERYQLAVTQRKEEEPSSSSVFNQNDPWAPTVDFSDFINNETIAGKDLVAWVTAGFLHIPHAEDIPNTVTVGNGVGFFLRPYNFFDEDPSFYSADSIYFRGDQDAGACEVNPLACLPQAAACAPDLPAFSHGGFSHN
Structures can show the parent of a compound that is named as a salt.
The number alone won't do; follow it with the unit.

# count of solved cases: 2
Compound: NC/C(=C/F)COc1ccc(C(=O)Nc2ccc3c(c2)OCCO3)cc1
IC50: 0.8 nM
--
Compound: NCC(=CF)COc1ccc(C(=O)Nc2ccc(F)cc2)cc1 [TM61, trifluoroacetate]
IC50: 0.5 nM

// each compound listed below needs its IC50
1. NC/C(=C/F)COc1ccc2c(c1)C(=O)CC2 [TM7-Z, trifluoroacetate]
2. NC/C(=C/F)COc1ccc(C(=O)Nc2ccc(F)cc2)cc1Cl [TM65-Z, trifluoroacetate]
3. NC/C(=C/F)COc1ccc(C(=O)N2CCC(c3ccccc3)CC2)cc1F [TM48-Z, trifluoroacetate]

["3.8 nM", "1.7 nM", "10.6 nM"]

Please report IC50 for every entry that follows.
1. NC/C(=C\F)COc1ccc(C(=O)N2CCc3c(Cl)cccc3C2)cc1F [TM73-E, trifluoroacetate]
2. NC/C(=C/F)COc1ccc(C(=O)N[C@H]2CCCc3ccccc32)cc1 [TM63-Z, trifluoroacetate]
3. NC/C(=C\F)COc1ccc(C(=O)N2CCC(c3ccccc3)CC2)cc1F

4.2 nM
4.4 nM
9.2 nM

* * *

assay: Stability in liver microsomes, rat; assay type: in vitro ADME; conditions: rat, liver microsomes; read-out: T1/2 in liver microsomes
Structures can show the parent of a compound that is named as a salt.
Recorded metric: half-life (h)
One number for each entry, in h.

Identify measured half-life corresponding to CC1(C)Cc2cc(OC/C(=C/F)CN)ccc2C(=O)N1 [HC38-E, hydrochloride]
14.2

* * *

Molecular target: VAP-1 in abdominal fat of mice (Mus musculus, UniProt O70423)
Construct: abdominal fat was collected and homogenized; from tissue; host or cells: abdominal fat of BALBc mice (homogenate supernatant)
Sequence (O70423 1-765): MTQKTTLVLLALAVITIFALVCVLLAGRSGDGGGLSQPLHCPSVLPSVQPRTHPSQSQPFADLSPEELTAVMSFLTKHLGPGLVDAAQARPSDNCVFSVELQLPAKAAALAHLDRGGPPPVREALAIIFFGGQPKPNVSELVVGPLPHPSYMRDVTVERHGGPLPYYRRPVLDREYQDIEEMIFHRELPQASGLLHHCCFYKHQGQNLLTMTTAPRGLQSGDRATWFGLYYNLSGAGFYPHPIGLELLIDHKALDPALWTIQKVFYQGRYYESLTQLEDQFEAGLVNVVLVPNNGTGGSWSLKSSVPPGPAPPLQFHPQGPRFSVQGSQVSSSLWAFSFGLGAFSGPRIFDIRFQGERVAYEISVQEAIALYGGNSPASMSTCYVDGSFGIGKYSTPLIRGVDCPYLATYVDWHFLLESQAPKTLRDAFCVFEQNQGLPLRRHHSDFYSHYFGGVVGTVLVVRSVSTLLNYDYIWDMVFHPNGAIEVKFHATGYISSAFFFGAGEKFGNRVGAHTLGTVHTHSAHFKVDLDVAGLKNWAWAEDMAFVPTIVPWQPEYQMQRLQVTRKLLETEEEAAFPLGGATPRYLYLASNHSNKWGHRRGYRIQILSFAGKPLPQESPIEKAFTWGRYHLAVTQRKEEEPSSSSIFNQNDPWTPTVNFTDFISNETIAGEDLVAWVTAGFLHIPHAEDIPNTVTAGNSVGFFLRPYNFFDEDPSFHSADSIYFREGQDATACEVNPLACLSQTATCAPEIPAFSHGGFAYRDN
Test: Inhibition of the enzymatic activity of VAP-1 ex-vivo, abdominal fat after oral dosing
Format: in vivo, BALBc mice
Details: mouse; 2 mg/kg oral, abdominal fat collected after six hours; read-out: Inhibition rate (%) against the enzymatic activity of VAP-1 (ex-vivo)
Where a name gives a salt, the structure may show the parent alone.
Recorded metric: inhibition at 2 mg/kg (%)
Numbers only, in %.

Worked examples follow.
Molecule: NCC(=CF)COc1ccc(-c2nc3ccc(Cl)cc3s2)cc1 [TM41, trifluoroacetate]
inhibition at 2 mg/kg / %: 96.1
--
Molecule: NCC(=CF)COc1ccc(C(=O)Nc2ccc(F)cc2)cc1 [TM61, trifluoroacetate]
inhibition at 2 mg/kg / %: 99.7
--
Molecule: NCC(=CF)COc1ccc(-c2nc3ccccc3[nH]2)cc1.O=C(O)C(F)(F)F [TM42, trifluoroacetate]
inhibition at 2 mg/kg / %: 106
--
Molecule: NCC(=CF)COc1ccc2c(c1)CN(Cc1ccc(Cl)cc1)C2=O
inhibition at 2 mg/kg / %: 105
--
Molecule: NCC(=CF)COc1ccc2c(c1)CCNC2=O.O=C(O)C(F)(F)F [TM26, trifluoroacetate]
inhibition at 2 mg/kg / %: 112
--
Molecule: NCC(=CF)COc1ccc(C(=O)N2CCc3ccccc3C2)cc1 [TM45, trifluoroacetate]
inhibition at 2 mg/kg / %: 91.9

Here is the next item to consider.
Complete the entry with inhibition at 2 mg/kg for NCC(=CF)COc1ccc(C(=O)N2CCC(c3ccccc3)CC2)cc1 [TM44, trifluoroacetate]
95.8

Value source: patent US20200087248A1
